Data provenance is paper PMC12638379.

Test system: NCI 60 cancer cell lines
Experiment: NCI anticancer screening over a panel of 60 cancer cells, single concentration 10 µM
Format: cell-based, human
Conditions: Homo sapiens, SF-268, CNS Cancer SF-268, 10 μM; read-out: % Growth Inhibition (GI %)
Experimental Endpoint: inhibition at 10 µM (%)
Report as a plain number; the unit % is understood.

Would you please look over these solved cases?
Smiles Record	inhibition at 10 µM / %
C/C(=N\Nc1ccc(S(N)(=O)=O)cc1)c1cnn(-c2cc(=O)[nH]c3ccc(C)cc23)c1C	13.3
C/C(=N\Nc1ccc(S(N)(=O)=O)cc1)c1cnn(-c2cc(=O)[nH]c3ccccc23)c1C	14
C/C(=N\Nc1ccc(S(N)(=O)=O)cc1)c1cnn(-c2cc(=O)[nH]c3ccc(Br)cc23)c1C	42.7

Could you now consider this next molecule?
Record "C/C(=N\Nc1ccc(S(N)(=O)=O)cc1)c1cnn(-c2cc(=O)[nH]c3ccc(Cl)cc23)c1C" , field inhibition at 10 µM: 28.7
